- System: VCaP cells
- EXPERIMENT_DESCRIPTION: VCaP growth inhibition assay
- Format: cell-based
- CONDITION_INFO: 30 pM R1881, 9 days, CTG
# Lookup of reported IC50 keyed by entry

COc1cc(OC2C(C)(C)C(NC(=O)c3ccc(N4CCC(OC5CCC(n6nc(N7CCCc8cc(-c9cnn(C)c9)c(C(F)F)cc87)c7c6CCN(C(C)=O)C7)CC5)CC4)cc3)C2(C)C)ccc1C#N (stereo not shown) [Compound 308]	≤ 0.1 nM
CC(=O)N1CCc2c(c(N3CCCc4cc(-c5cnn(C)c5)c(C(F)F)cc43)nn2C2CCC3(CC2)CN(C2CCN(c4ncc(C(=O)NC5C(C)(C)C(Oc6ccc(C#N)c(Cl)c6)C5(C)C)cn4)CC2)C3)C1 (stereo not shown) [Compound 371]	≤ 0.1 nM

Exercise: Report the value of IC50 obtained on VCaP cells for COc1cc(OC2C(C)(C)C(NC(=O)c3ccc(N4CCC(CCc5ccc(-c6cc7c(cc6C(F)F)N(c6nn(C8CCOCC8)c8c6CN(C(C)=O)CC8)CCC7)cn5)CC4)cc3)C2(C)C)ccc1C#N (stereo not shown) [Compound 247] .
Solution: 0.1 to 1 nM

Exercise: Jot down IC50 (VCaP cells) of CC(=O)N1CCc2c(c(Nc3ccc(-c4cnn(C)c4)cc3F)nn2C2CCN(CC3CCN(c4ncc(C(=O)NC5C(C)(C)C(Oc6ccc(C#N)c(Cl)c6)C5(C)C)cn4)CC3)C2)C1 (stereo not shown) [Compound 7] .
Solution: 0.1 to 1 nM

Exercise: Give IC50 only, for COc1cc(OC2C(C)(C)C(NC(=O)c3ccc(N4CCC5(CC4)CC4(CC(n6nc(N7CCCc8cc(-c9cnn(C)c9)c(C(F)F)cc87)c7c6CCN(C(C)=O)C7)C4)C5)cc3)C2(C)C)ccc1C#N (stereo not shown) [Compound 286] , using VCaP cells data.
Solution: 1 to 100 nM
